Recorded values, source ChEMBL document CHEMBL3885881.

Species: Rattus norvegicus
Test: DrugMatrix - Regimen: Daily Repeat
Format: toxicity, organism-based, Sprague-Dawley
Set-up: regimen Daily Repeat, gender Male, age 6-8 weeks
Details: in vivo, po, 10 mg/kg, 72 h, tissue Plasma, route oral GAVAGE, dose level Low, time 3 day, […]
Parameter: URIC ACID. Scope: all listed entries.
RECORDED ENDPOINT: URIC ACID (mg/dL)

1. CCOC(=O)C1=C(C)NC(C)=C(C(=O)OC)C1c1cccc([N+](=O)[O-])c1 (centres undefined) [NITRENDIPINE] :: 0.7
2. CC(C)CC(N(C)C)C1(c2ccc(Cl)cc2)CCC1 (centres undefined) [SIBUTRAMINE] :: 1.27
3. COCCOC(=O)C1=C(C)NC(C)=C(C(=O)OC(C)C)C1c1cccc([N+](=O)[O-])c1 (centres undefined) [NIMODIPINE] :: 0.7
4. COc1ccc2cc([C@H](C)C(=O)O)ccc2c1 [NAPROXEN] :: 2.03

----------
Species on record: Rattus norvegicus
Test: DrugMatrix - Regimen: Daily Repeat
Assay type: toxicity, organism-based, Sprague-Dawley
Design: regimen Daily Repeat, gender Male, age 6-8 weeks
Conditions: in vivo, po, 0 mg/kg, 120 h, tissue Plasma, route oral GAVAGE, dose level Control, time 5 day, vehicle .5 % CMC
Rule: measured ASPARTATE AMINOTRANSFERASE below 80 u/L gets true; anything equal to or greater than 80 u/L gets false.

1) OC(CCN1CCCCC1)(c1ccccc1)C1CCCCC1 (centres undefined) :: true
2) C[C@]1(Cn2ccnn2)[C@H](C(=O)O)N2C(=O)C[C@H]2S1(=O)=O :: true
3) CC(C)[C@H]1CC[C@H](C(=O)N[C@H](Cc2ccccc2)C(=O)O)CC1 [NATEGLINIDE] :: false
4) Cc1onc(-c2ccccc2)c1-c1ccc(S(N)(=O)=O)cc1 :: true
5) N=C(N)NC(=O)c1nc(Cl)c(N)nc1N [AMILORIDE] :: true
6) C[C@](O)(CS(=O)(=O)c1ccc(F)cc1)C(=O)Nc1ccc(C#N)c(C(F)(F)F)c1 [(R)-BICALUTAMIDE] :: false
7) CC(=O)CC(c1ccccc1)c1c(O)c2ccccc2oc1=O (centres undefined) :: false

----------
Species on record: Rattus norvegicus
Assay: DrugMatrix - Regimen: Daily Repeat
Assay type: toxicity, organism-based, Sprague-Dawley
Set-up: regimen Daily Repeat, gender Male, age 6-8 weeks
Details: in vivo, po, 0 mg/kg, 72 h, tissue Blood, route oral GAVAGE, dose level Control, time 3 day, vehicle 100 % WATER
RECORDED ENDPOINT: LYMPHOCYTE

1) COc1ccc2c(c1)c(CC(=O)O)c(C)n2C(=O)c1ccc(Cl)cc1 :: 93%
2) COC(=O)C1=C(C)NC(C)=C(C(=O)OCC(C)C)C1c1ccccc1[N+](=O)[O-] (stereo not given) :: 92.67%
3) C[N+](C)(C)CCO.[Cl-] [CHOLINE CHLORIDE] :: 92.33%
4) ClC(Cl)Cl [CHLOROFORM] :: 89.83%
5) CC(C)(C)c1ccc(C(=O)CCCN2CCC(OC(c3ccccc3)c3ccccc3)CC2)cc1 :: 90.17%
6) C[C@@H]1C[C@@H]([C@H](O)CC2CC(=O)NC(=O)C2)C(=O)[C@@H](C)C1 [CYCLOHEXIMIDE] :: 88%
7) Nc1ccn([C@@H]2CS[C@H](CO)O2)c(=O)n1 :: 90.17%
8) CC(C)C[C@H](NC(=O)[C@@H](O)[C@H](N)Cc1ccccc1)C(=O)O :: 89.83%
9) CC(C)NCC(O)COc1cccc2ccccc12 (stereo not given) :: 86.5%
10) Cc1ncc([N+](=O)[O-])n1CCO :: 89.83%

----------
Species on record: Rattus norvegicus
Assay: DrugMatrix - Regimen: Daily Repeat
Type: toxicity, organism-based, Sprague-Dawley
Parameters: regimen Daily Repeat, gender Male, age 6-8 weeks
Conditions: in vivo, po, 0 mg/kg, 72 h, tissue Blood, route oral GAVAGE, dose level Control, time 3 day, […]
Parameter: HEMATOCRIT. Scope: all listed entries.
RECORDED ENDPOINT: HEMATOCRIT

1) CCOC(=O)C(C)(C)Oc1ccc(Cl)cc1 [CLOFIBRATE] :: 32.58%
2) Cc1cccc(Nc2ccncc2S(=O)(=O)NC(=O)NC(C)C)c1 [TORSEMIDE] :: 35.4%
3) CC(=O)Nc1cccc(O)c1 :: 33.68%
4) Clc1ccc(Cl)cc1 :: 46.77%
5) CC/C(=C(/CC)c1ccc(O)cc1)c1ccc(O)cc1 :: 32.32%
6) CC(C)Cc1ccc(C(C)C(=O)O)cc1 (stereo not given) :: 33.7%
7) CCOC(=O)C1=C(C)NC(C)=C(C(=O)OC)C1c1cccc([N+](=O)[O-])c1 (stereo not given) :: 34.03%
8) COc1ccc2[nH]c([S+]([O-])Cc3ncc(C)c(OC)c3C)nc2c1 (stereo not given) :: 35.22%
9) C[C@]12CC[C@@H]3c4ccc(O)cc4CC[C@H]3[C@@H]1CC[C@@H]2O :: 35.4%
10) COCCOC(=O)C1=C(C)NC(C)=C(C(=O)OC(C)C)C1c1cccc([N+](=O)[O-])c1 (stereo not given) :: 34.03%

----------
Parameter: MEAN CORPUSCULAR HEMOGLOBIN. Scope: all listed entries.
Species on record: Rattus norvegicus
Assay: DrugMatrix - Regimen: Daily Repeat
Assay type: toxicity, organism-based, Sprague-Dawley
Design: regimen Daily Repeat, gender Male, age 6-8 weeks
Details: in vivo, po, 0 mg/kg, 120 h, tissue Blood, route oral GAVAGE, dose level Control, time 5 day, vehicle 100 % WATER
RECORDED ENDPOINT: MEAN CORPUSCULAR HEMOGLOBIN (pg)

1) COc1cc2ncnc(Nc3ccc(F)c(Cl)c3)c2cc1OCCCN1CCOCC1 [GEFITINIB] :: 20.55
2) COC(=O)C1=C(C)NC(C)=C(C(=O)OCC(C)C)C1c1ccccc1[N+](=O)[O-] (centres undefined) [NISOLDIPINE] :: 24.97
3) C[C@@H]1C[C@@H]([C@H](O)CC2CC(=O)NC(=O)C2)C(=O)[C@@H](C)C1 [CYCLOHEXIMIDE] :: 23.15
4) Nc1ccn([C@@H]2CS[C@H](CO)O2)c(=O)n1 [LAMIVUDINE] :: 24.57

----------
Organism: Rattus norvegicus
Experiment: DrugMatrix - Regimen: Daily Repeat
Assay type: toxicity, organism-based, Sprague-Dawley
Set-up: regimen Daily Repeat, gender Male, age 6-8 weeks
Conditions: in vivo, po, 0 mg/kg, 72 h, tissue Plasma, route oral GAVAGE, dose level Control, time 3 day, […]
RECORDED ENDPOINT: CHLORIDE (MEQ/L)

1) COc1ccc2[nH]c([S+]([O-])Cc3ncc(C)c(OC)c3C)nc2c1 (stereo not given) :: 100
2) Cc1cccc(Nc2ccncc2S(=O)(=O)NC(=O)NC(C)C)c1 [TORSEMIDE] :: 97.67
3) CC(C)Cc1ccc(C(C)C(=O)O)cc1 (stereo not given) :: 99.67
4) C[C@]12CC[C@@H]3c4ccc(O)cc4CC[C@H]3[C@@H]1CC[C@@H]2O :: 97.67
5) Clc1ccc(Cl)cc1 :: 102
6) CC/C(=C(/CC)c1ccc(O)cc1)c1ccc(O)cc1 :: 100.5
7) C[C@H]1O[C@@H](O[C@H]2[C@@H](O)C[C@H](O[C@H]3[C@@H](O)C[C@H](O[C@H]4CC[C@@]5(C)[C@H](CC[C@@H]6[C@@H]5CC[C@]5(C)[C@@H](C7=CC(=O)OC7)CC[C@]65O)C4)O[C@@H]3C)O[C@@H]2C)C[C@H](O)[C@@H]1O :: 95.83
8) S=C=Nc1cccc2ccccc12 [1-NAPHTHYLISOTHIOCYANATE] :: 98.33
9) CCOC(=O)C1=C(C)NC(C)=C(C(=O)OC)C1c1cccc([N+](=O)[O-])c1 (stereo not given) :: 98.33
10) CCCCCCCCc1ccc(O)cc1 :: 101

----------
Organism: Rattus norvegicus
Test: DrugMatrix - Regimen: Daily Repeat
Assay type: toxicity, organism-based, Sprague-Dawley
Parameters: regimen Daily Repeat, gender Male, age 6-8 weeks
Settings: in vivo, iv, 0 mg/kg, 120 h, tissue Plasma, dose level Control, time 5 day, vehicle 100 % SALINE
RECORDED ENDPOINT: ALANINE AMINOTRANSFERASE

1) CC[C@]1(O)C[C@@H]2CN(CCc3c([nH]c4ccccc34)[C@@](C(=O)OC)(c3cc4c(cc3OC)N(C)[C@H]3[C@@](O)(C(=O)OC)[C@H](OC(C)=O)[C@]5(CC)C=CCN6CC[C@]43[C@@H]65)C2)C1 :: 51 u/L
2) CCc1c2c(nc3ccc(OC(=O)N4CCC(N5CCCCC5)CC4)cc13)-c1cc3c(c(=O)n1C2)COC(=O)[C@]3(O)CC :: 45.5 u/L
3) CC(=O)N[C@@H]1[C@H](Oc2c3cc4cc2Oc2ccc(cc2Cl)[C@@H](O[C@@H]2O[C@@H](CO)[C@@H](O)[C@H](O)[C@@H]2NC(C)=O)[C@@H]2NC(=O)[C@H](NC(=O)[C@@H]4NC(=O)[C@H]4NC(=O)[C@@H](Cc5ccc(c(Cl)c5)O3)NC(=O)[C@H](N)c3ccc(O)c(c3)Oc3cc(O)cc4c3)c3ccc(O)c(c3)-c3c(O[C@H]4O[C@H](CO)[C@@H](O)[C@@H](O)[C@@H]4O)cc(O)cc3[C@@H](C(=O)O)NC2=O)O[C@@H](CO)[C@@H](O)[C@@H]1O :: 49.83 u/L
4) CCC1=C[C@@H]2CN(C1)Cc1c([nH]c3ccccc13)[C@@](C(=O)OC)(c1cc3c(cc1OC)N(C)[C@H]1[C@@](O)(C(=O)OC)[C@H](OC(C)=O)[C@]4(CC)C=CCN5CC[C@]31[C@@H]54)C2 :: 44.67 u/L
5) COc1cccc2c1C(=O)c1c(O)c3c(c(O)c1C2=O)C[C@@](O)(C(=O)CO)C[C@@H]3O[C@H]1C[C@H](N)[C@@H](O)[C@H](C)O1 [EPIRUBICIN] :: 45.5 u/L
6) COc1cccc2c1C(=O)c1c(O)c3c(c(O)c1C2=O)C[C@@](O)(C(=O)CO)C[C@@H]3O[C@H]1C[C@H](N)[C@H](O)[C@H](C)O1 :: 50 u/L
